# Test system: HeLa cells
# method: Cytotoxicity XTT, HeLa
# Assay type: cell-based, human
# assayContext: 72 h, mean ± SD of 3 independent experiments in triplicate, read-out: cytotoxic IC50 HeLa
quantity: pIC50
Notebook: values listed as pIC50 are -log10 of the concentration (mol/L).

(Q) Find the recorded pIC50 belonging to `CC(/C=C/C(=O)NO)=C\[C@@H](C)C(=O)c1ccc(N(C)C)cc1` and report it.
(A) 5.82

====

# testedTarget: HDAC6 (Homo sapiens)
# Construct: purchased Sigma Aldrich or Reaction Biology Corporation
# method: In vitro enzymatic assay HDAC6 (Fluor de Lys)
# Format: biochemical
# assayContext: 100 µM; mean ± SD (n=3)
Could you label it t if measured HDAC6 % of inhibition at 100 µM is 20% or higher, and f otherwise?

molecule: Cc1cc2ccccc2n2c(SCC(=O)Nc3ccc(S(N)(=O)=O)cc3)nnc12 [AQ-1]
labelClass: f

molecule: Cc1nn(Cc2ccc(C(=O)NN)o2)c(C)c1Cl [AK-11]
labelClass: f

molecule: NNC(=O)c1ccc(COc2ccc(Cl)cc2Cl)o1 [AK-25]
labelClass: t

(Q) Assess whether reported HDAC6 % of inhibition at 100 µM for NNC(=O)C12CC3CC(C1)CC(n1cnc(Cl)n1)(C3)C2 [AK-4] sits at 20% or higher.
(A) f

(Q) Here is the next molecule: CC1(C)Cc2c(c(N3CCOCC3)nc3sc(C(=O)NN)cc23)CO1 [AK-8]
(A) t

(Q) Likewise for CCOc1cc(/C=N/O)cc(Cl)c1OC [AK-9] ?
(A) f

(Q) // query: Cc1nnn(C23CC4CC(CC(C(=O)NN)(C4)C2)C3)n1 [AK-19]
(A) f

(Q) Okay, and N/N=C1\CCCc2c1[nH]c1ccc(C(=O)NN)cc21 [AH-1] ?
(A) t

====

# testedTarget: HDAC6 (Homo sapiens)
quantity: IC50 (µM)
API: value field is a number in µM; no unit string.

smilesInput: NNC(=O)c1ccc(COc2ccccc2Cl)cc1
IC50 (µM): 12.8

(Q) Would you kindly share the measured IC50 for `COc1ccccc1OCc1ccc(C(=O)NN)cc1` ?
(A) 45.6

(Q) Same question, `NNC(=O)c1ccc(Cn2cc(Cl)cn2)cc1` this time
(A) 74.9

(Q) Do the same for `Cc1nn(Cc2ccc(C(=O)NN)cc2)c(C)c1Cl` please
(A) 47.9

====

# System: HEK 293 cells
# method: Cytotoxicity XTT, HEK 293
# Assay type: cell-based
# assayContext: 72 h, mean ± SD of 3 independent experiments in triplicate, read-out: cytotoxic IC50 HEK 293
quantity: pIC50
# pIC50 = -log10(concentration in molar units)

(Q) Request the reported pIC50 associated with CC(/C=C/C(=O)NO)=C\[C@@H](C)C(=O)c1ccc(N(C)C)cc1 [Trichostatin A]
(A) 6.52

====

# method: PAMPA-BBB
# Assay type: in vitro ADME
# assayContext: PAMPA; pH 7.4, 100 μM donor, 18 hours, room temperature; read-out: effective passive permeability Pe (PAMPA-BBB)
quantity: Papp at 18 h, 100 μM (×10⁻⁶ cm/s)
// units = ×10⁻⁶ cm/s; emit number, no label

(Q) Request the reported Papp at 18 h, 100 μM associated with NNC(=O)c1ccc(COc2ccccc2Cl)cc1 [AK-14]
(A) 6.5

====

Consider the following compounds and their measured HDAC6 % of inhibition at 100 µM readings.
# testedTarget: HDAC6 (Homo sapiens, UniProt Q9UBN7)
# Construct: purchased Sigma Aldrich or Reaction Biology Corporation
# Sequence (Q9UBN7 whole entry): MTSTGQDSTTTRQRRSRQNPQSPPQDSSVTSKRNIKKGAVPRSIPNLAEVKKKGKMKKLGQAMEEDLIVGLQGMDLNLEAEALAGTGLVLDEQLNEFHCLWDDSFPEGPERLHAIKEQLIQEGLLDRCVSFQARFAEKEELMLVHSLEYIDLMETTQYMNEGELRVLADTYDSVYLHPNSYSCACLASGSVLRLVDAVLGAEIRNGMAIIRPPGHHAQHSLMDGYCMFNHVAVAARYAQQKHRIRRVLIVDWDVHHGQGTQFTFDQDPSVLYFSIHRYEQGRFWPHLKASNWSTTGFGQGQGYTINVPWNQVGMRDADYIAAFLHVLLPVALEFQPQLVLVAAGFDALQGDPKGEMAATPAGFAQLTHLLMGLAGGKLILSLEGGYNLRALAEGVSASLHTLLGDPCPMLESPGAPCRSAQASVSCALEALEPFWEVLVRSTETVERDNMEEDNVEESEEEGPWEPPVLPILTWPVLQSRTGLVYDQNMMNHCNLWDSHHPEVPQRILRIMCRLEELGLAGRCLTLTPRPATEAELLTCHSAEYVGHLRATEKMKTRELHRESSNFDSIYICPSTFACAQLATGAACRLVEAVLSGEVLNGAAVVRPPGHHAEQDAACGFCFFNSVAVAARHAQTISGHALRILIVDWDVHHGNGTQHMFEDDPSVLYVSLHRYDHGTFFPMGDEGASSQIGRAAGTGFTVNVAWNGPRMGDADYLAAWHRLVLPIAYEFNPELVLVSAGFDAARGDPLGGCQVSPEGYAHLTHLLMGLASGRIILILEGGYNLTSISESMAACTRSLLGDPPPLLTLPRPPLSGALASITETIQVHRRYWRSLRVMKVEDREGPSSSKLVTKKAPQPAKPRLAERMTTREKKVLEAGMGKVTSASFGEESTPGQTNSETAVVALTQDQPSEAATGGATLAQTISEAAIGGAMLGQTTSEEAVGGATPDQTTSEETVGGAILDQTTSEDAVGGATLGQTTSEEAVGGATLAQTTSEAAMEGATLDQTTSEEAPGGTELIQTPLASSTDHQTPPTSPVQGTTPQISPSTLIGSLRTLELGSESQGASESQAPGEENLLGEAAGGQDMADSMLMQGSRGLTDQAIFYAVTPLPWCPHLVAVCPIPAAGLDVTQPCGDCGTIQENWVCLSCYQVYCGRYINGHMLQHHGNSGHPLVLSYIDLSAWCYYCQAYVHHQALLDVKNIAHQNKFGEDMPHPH
# method: In vitro enzymatic assay HDAC6 (Fluor de Lys)
# Type: biochemical
# assayContext: 100 µM; mean ± SD (n=3)

Some compounds with known HDAC6 % of inhibition at 100 µM results, for comparison:
compound: CC(C)c1ccc(OCc2cccc(C(=O)NN)c2)cc1 [AK-1]
result: 18.3 ± 0.1%
--
compound: COc1cc(/C=N/NC(N)=S)ccc1OCC(=O)Nc1ccc(C)c(C)c1 [AN-3]
result: -4.0 ± 3.9% Self-fluorescence
--
compound: CC(C)Oc1cccc(C(=O)NN)c1 [AK-10]
result: 13.9 ± 17.9%
--
compound: Cc1c(C)n(Cc2ccccc2)c2ccc(C(=O)NN)cc12 [AK-12]
result: 28.2 ± 16.7%
--
compound: CCOc1ccc(OCc2ccc(C(=O)NN)o2)cc1 [AK-16]
result: 36.9 ± 11.3%

Switching to the query record.
(Q) Please report the recorded HDAC6 % of inhibition at 100 µM for Cc1cccc(Cn2nnc3c(=O)n(CC(=O)Nc4ccc(S(N)(=O)=O)cc4)cnc32)c1 [AO-2] .
(A) -3.3 ± 5.4%

====

# testedTarget: HDAC6 (Homo sapiens)
# Construct: purchased Sigma Aldrich or Reaction Biology Corporation
# method: In vitro enzymatic assay HDAC6 (Fluor de Lys)
# Format: biochemical
# assayContext: 100 µM; mean ± SD (n=3)
quantity: HDAC6 % of inhibition at 100 µM (%)
Return type: number; implicit unit %.

Recorded HDAC6 % of inhibition at 100 µM, per entry:
smilesInput: CC(C)C12CC3CC(CC(C(=O)NN)(C3)C1)C2
unitString: %
HDAC6 % of inhibition at 100 µM: 5.2
--
smilesInput: NNC(=O)c1cc(Br)cs1
unitString: %
HDAC6 % of inhibition at 100 µM: 22.3
--
smilesInput: NNC(=O)CC12CC3CC(C1)CC(n1ncnn1)(C3)C2
unitString: %
HDAC6 % of inhibition at 100 µM: 23.7
--
smilesInput: CC(C)(C)CC(C)(C)c1ccc(OCC(=O)NN)c([N+](=O)[O-])c1
unitString: %
HDAC6 % of inhibition at 100 µM: 5.5
--
smilesInput: NS(=O)(=O)c1ccc(N2N=C(C(F)(F)F)/C(=C/c3ccc(-c4ccc(Cl)c(Cl)c4)o3)C2=O)cc1
unitString: %
HDAC6 % of inhibition at 100 µM: -43.0
--
smilesInput: C=CCn1c(SCC(=O)Nc2ccc(S(N)(=O)=O)cc2)nnc1-c1sc(N)nc1C
unitString: %
HDAC6 % of inhibition at 100 µM: -1.8
--
smilesInput: COc1ccccc1OCc1ccc(C(=O)NN)o1
unitString: %
HDAC6 % of inhibition at 100 µM: 42.1

(Q) Provide the documented HDAC6 % of inhibition at 100 µM with HDAC6 (Homo sapiens) as the system for `Cc1ccccc1COc1ccc(/C=N/NC(N)=S)cc1`
(A) 12.1

====

Listed here: molecules with reported IC50 for HDAC4 (Homo sapiens).

Example results:
smilesInput: NNC(=O)c1ccc(COc2ccccc2Br)cc1
testedTarget: HDAC4 (Homo sapiens)
Sequence (P56524 whole entry): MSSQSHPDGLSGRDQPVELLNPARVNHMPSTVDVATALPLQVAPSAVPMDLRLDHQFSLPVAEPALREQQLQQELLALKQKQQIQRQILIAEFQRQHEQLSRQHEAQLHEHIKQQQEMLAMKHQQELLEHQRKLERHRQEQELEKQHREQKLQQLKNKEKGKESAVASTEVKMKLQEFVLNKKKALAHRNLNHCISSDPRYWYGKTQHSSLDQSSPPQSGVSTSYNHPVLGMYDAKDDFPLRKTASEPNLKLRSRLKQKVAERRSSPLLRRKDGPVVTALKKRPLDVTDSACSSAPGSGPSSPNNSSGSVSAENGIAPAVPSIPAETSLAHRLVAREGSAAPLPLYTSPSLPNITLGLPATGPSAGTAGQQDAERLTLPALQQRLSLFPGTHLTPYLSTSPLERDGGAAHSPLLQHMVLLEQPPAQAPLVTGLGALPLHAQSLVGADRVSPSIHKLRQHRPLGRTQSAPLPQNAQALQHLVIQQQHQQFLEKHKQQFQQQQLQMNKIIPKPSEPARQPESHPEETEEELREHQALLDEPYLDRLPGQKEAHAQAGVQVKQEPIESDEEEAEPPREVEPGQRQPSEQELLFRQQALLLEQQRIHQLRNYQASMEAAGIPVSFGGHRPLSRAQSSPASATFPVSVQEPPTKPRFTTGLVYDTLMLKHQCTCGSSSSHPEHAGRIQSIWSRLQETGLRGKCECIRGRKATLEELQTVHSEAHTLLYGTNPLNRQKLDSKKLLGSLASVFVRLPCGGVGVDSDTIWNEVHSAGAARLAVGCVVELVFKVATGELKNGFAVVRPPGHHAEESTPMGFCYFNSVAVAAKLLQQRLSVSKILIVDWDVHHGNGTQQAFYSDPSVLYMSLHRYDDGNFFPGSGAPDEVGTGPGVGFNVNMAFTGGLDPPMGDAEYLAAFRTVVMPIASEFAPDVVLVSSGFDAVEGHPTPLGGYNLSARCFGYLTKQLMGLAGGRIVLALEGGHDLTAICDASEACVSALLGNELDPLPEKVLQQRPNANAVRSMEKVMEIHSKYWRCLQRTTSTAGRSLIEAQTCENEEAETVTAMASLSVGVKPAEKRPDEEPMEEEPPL
result: > 300 µM

smilesInput: CC1(C)Cc2ccccc2C2=C/C(=N/O)C(=O)N21
testedTarget: HDAC4 (Homo sapiens)
result: 111 µM

smilesInput: O=C(CSc1nc2cc(Cl)c3cccnc3c2o1)c1ccc(O)c(O)c1
testedTarget: HDAC4 (Homo sapiens)
result: 73.5 µM

smilesInput: Cc1nn(Cc2ccc(C(=O)NN)cc2)c(C)c1Cl
testedTarget: HDAC4 (Homo sapiens)
result: > 300 µM

smilesInput: NNC(=O)c1ccc(Cn2cc(Br)cn2)cc1
testedTarget: HDAC4 (Homo sapiens)
result: > 300 µM

(Q) Please give the measured IC50 for this molecule: `NNC(=O)c1ccc(COc2ccccc2Cl)cc1`
(A) > 300 µM

(Q) Quick one: `COc1ccccc1OCc1ccc(C(=O)NN)cc1`
(A) > 300 µM

====

# method: Cytotoxicity XTT, HeLa
# Format: cell-based, human
# assayContext: human, HeLa cells, mean ± SD of 3 independent experiments in triplicate, read-out: cytotoxic IC50 HeLa
This section presents molecules with their documented IC50 at 72 h values.
Please provide the amount together with its unit, number first.

smilesInput: NNC(=O)c1ccc(COc2ccccc2Cl)cc1
IC50 at 72 h: 299 µM

(Q) State the recorded IC50 at 72 h for this entry: `CN1CCc2c(c3ccccc3n2Cc2ccc(C(=O)NO)cc2)C1`
(A) 11.2 µM

====

Target sequence: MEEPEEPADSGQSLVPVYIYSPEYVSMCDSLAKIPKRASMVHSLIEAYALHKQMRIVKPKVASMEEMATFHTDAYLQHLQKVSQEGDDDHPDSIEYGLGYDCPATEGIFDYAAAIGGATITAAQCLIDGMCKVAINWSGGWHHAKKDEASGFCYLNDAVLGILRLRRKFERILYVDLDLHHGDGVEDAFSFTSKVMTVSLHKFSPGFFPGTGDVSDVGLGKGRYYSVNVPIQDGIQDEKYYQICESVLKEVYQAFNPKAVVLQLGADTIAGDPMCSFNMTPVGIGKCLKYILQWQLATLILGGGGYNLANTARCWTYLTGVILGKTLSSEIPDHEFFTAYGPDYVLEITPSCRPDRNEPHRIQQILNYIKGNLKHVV
Quick reference for pIC50 among some compounds
Note: pIC50 values are expressed as the negative base-10 logarithm of concentration in M.

smilesInput: CC1(C)Cc2ccccc2C2=C/C(=N/O)C(=O)N21
pIC50: 6.52

Next compound, please.
(Q) Using the record for `O=C(CSc1nc2cc(Cl)c3cccnc3c2o1)c1ccc(O)c(O)c1` , report its pIC50.
(A) 4.45
